Biological target: mHCN2 (Mouse HCN2) (Mus musculus)
Sequence (O88703 1-863): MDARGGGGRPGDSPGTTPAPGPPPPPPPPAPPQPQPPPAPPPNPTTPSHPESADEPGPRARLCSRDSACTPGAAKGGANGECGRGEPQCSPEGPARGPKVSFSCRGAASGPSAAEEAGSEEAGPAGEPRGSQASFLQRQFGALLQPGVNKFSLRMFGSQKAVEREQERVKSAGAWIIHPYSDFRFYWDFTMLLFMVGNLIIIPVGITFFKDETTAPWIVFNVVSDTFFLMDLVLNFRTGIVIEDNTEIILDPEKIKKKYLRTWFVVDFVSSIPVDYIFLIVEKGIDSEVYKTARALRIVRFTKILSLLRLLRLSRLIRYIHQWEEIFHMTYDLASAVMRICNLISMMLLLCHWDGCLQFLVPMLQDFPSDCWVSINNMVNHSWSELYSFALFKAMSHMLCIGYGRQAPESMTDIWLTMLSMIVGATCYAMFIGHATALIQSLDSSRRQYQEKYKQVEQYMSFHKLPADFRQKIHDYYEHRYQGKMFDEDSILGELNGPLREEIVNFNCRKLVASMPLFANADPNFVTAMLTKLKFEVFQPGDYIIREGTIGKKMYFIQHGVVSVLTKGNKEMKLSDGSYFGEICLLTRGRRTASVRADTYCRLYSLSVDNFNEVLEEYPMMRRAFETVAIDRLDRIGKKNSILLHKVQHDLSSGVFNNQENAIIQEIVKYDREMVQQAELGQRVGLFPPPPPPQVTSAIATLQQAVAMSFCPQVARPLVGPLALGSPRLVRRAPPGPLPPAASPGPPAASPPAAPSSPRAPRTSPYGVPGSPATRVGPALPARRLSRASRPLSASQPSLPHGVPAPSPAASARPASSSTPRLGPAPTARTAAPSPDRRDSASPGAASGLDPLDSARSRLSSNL
Assay: whole-cell patch clamp of Ih in transfected HEK […] cells
Result Type: pIC50
# pIC50 is unitless: minus log10 of the molar concentration; print number only

Determine from records and report pIC50 for Oc1cc2c(cc1O)CN(C(=S)NCCc1ccc(Cl)cc1)CCC2 [CPZ, Capsazepine] 5.02

* * *

biological target: mHCN1 (Mouse HCN1) (Mus musculus, UniProt O88704); test: whole-cell patch clamp of Ih in transfected HEK […] cells
Sequence (O88704 whole entry): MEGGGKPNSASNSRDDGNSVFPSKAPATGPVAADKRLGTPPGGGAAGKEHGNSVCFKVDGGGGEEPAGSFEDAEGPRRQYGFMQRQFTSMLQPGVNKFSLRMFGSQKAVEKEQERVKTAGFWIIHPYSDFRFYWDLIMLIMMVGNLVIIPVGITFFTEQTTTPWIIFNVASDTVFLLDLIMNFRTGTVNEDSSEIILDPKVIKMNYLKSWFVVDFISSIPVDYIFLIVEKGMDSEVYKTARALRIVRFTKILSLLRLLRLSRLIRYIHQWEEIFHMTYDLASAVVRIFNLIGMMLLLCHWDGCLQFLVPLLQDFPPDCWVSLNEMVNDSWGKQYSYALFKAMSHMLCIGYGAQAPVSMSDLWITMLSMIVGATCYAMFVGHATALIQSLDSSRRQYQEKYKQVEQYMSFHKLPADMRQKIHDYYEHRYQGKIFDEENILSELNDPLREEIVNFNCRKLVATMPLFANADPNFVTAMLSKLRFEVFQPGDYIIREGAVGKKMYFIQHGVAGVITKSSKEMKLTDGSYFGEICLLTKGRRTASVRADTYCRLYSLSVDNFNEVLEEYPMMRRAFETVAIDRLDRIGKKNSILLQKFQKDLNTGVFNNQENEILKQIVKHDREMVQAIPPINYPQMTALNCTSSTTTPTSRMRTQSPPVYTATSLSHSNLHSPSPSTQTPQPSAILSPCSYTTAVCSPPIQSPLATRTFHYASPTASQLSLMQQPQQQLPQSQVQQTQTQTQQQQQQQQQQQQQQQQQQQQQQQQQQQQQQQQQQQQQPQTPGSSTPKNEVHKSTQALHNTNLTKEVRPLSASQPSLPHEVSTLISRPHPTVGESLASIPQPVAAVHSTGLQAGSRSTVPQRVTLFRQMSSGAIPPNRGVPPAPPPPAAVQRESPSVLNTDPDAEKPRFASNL
Result Type: IC50 (µM)
Dear colleague, please return just the value in µM, with no unit written.

Determine from records and report IC50 for Oc1cc2c(cc1O)CN(C(=S)NCCc1ccc(Cl)cc1)CCC2 [CPZ, Capsazepine] 8.2
